Overview of recorded IC50 for various compounds
# Test system: HCC1954
# PROTOCOL_NOTES: Cell growth inhibition assay (Cell Titer Glo), HCC1954
# Format: cell-based
# MEASUREMENT_CONDITIONS: Homo sapiens, 72 h; HCC1954, 3 days, single agent; read-out: Single Agent IC50 (μM), mean ± STD
# Method: Human breast tumor cell lines BT474, HCC1419, HCC1954, JIMT1, MDA-MB-361, SK-BR-3 and UACC893 were cultured in RPMI 1640 medium containing 10% FBS. […] All cells were cultured for a minimum of 72 hours prior to cell plating. […] ATP levels were determined by adding Cell Titer Glo® (Promega) according to the manufacturer's protocol. Briefly, Cell Titer Glo® was added to each plate, incubated for 20 minutes then the luminescent signal was read on a SpectraMax L plate reader with a 0.5 sec integration time. […]
Lab book: enter the figure in µM, no units written.

{"COMPOUND": "Cn1ncc(Cl)c1-c1cc(C(=O)N[C@H](CN)Cc2cccc(F)c2)sc1Cl [Compound B]", "IC50 (µM)": 3.67}

Let us move to another entry and its IC50.
Could you please provide reported IC50 for CS(=O)(=O)CCNCc1ccc(-c2ccc3ncnc(Nc4ccc(OCc5cccc(F)c5)c(Cl)c4)c3c2)o1 [Compound A, reference compound] ? Thanks! 1.73

###

# System: SK-BR-3
# PROTOCOL_NOTES: Cell growth inhibition assay (Cell Titer Glo), SK-BR-3
# Assay type: cell-based
# MEASUREMENT_CONDITIONS: Homo sapiens, 72 h; SK-BR-3, 3 days, single agent; read-out: Single Agent IC50 (μM), mean ± STD
QUANTITY_MEASURED: IC50 (µM)
Give the number; µM is assumed, so skip it.

{"MOLECULE": "CS(=O)(=O)CCNCc1ccc(-c2ccc3ncnc(Nc4ccc(OCc5cccc(F)c5)c(Cl)c4)c3c2)o1 [Compound A, reference compound]", "IC50 [µM]": 0.105}

We now examine a further molecule.
Answer with reported IC50 of Cn1ncc(Cl)c1-c1cc(C(=O)N[C@H](CN)Cc2cccc(F)c2)sc1Cl [Compound B] 4.19

###

# System: JIMT-1
# PROTOCOL_NOTES: Cell growth inhibition assay (Cell Titer Glo), JIMT-1
# Format: cell-based, human
# MEASUREMENT_CONDITIONS: JIMT-1, 3 days, single agent; read-out: Single Agent IC50 (μM), mean ± STD
QUANTITY_MEASURED: IC50 (µM)
Answer in µM, number only, no unit symbol.

For Cn1ncc(Cl)c1-c1cc(C(=O)N[C@H](CN)Cc2cccc(F)c2)sc1Cl , write its IC50. 6.81
